test system: HT-29; assay: Alamar blue fluorescence viability (IC50), HT-29; type: cell-based; conditions: Average Fold Change between 24/72 hr IC50 values for MCF-7 and HT-29
endpoint label: Fold Change

compound="O=C1Nc2c(C(F)(F)F)cccc2C1(c1ccc(O)cc1)N1CC(F)(F)C(F)(F)C1 (stereo not shown) [drawing 36]" result=3750
compound="O=C1Nc2c(C(F)(F)F)cccc2[C@@]1(c1ccc(O)cc1)N1CCC(F)(F)CC1 (single isomer, unassigned)" result=1588

Fill in: HT-29 Fold Change for O=C1Nc2c(C(F)(F)F)cccc2C1(c1ccc(O)cc1)N1CCCC(F)(F)C1 (stereo not shown) = 758

Item: O=C1Nc2c(C(F)(F)F)cccc2C1(c1ccc(O)cc1)N1CCC(F)(F)C1 (stereo not shown) | System: HT-29 | Fold Change: 1364
